B1: CPEB3 Ribozyme (parent)
chain: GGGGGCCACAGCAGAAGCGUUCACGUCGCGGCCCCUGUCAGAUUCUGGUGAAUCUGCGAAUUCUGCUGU

Variants of: B1
assay procedure: self-cleavage, relative activity (ratio to wild type); higher = more cleavage; co-transcriptional
Answer not satisfied if self-cleavage is under 0.5, and satisfied if it is 0.5 or more.

Past entries and their recorded results:
>  <sequence text>
GGGGGCCACAGCAGAAGCGUUCACGUUGCGGCCCCUGUCAGAUUCUGGUGAAUCUGCGAAUUAUGCUGU

>  <qualitative label>
not satisfied

$$$$
>  <sequence text>
GGGGGCCACAGCAGAAGCGUUCACGUUGCGGCCCCUGUCAGAUUCUAGUGAAUCUGCGAAUUCUGCUGU

>  <qualitative label>
not satisfied

$$$$
>  <sequence text>
GGGGGCCAGAGCAGAAGCGUUCACGUCGCGGCCCCUGUCAGAUUCUGGUGACUCUGCGAAUUCUGCUGU

>  <qualitative label>
satisfied

$$$$
>  <sequence text>
GGGGGCCACAGCAGAAGCGUUCACGUCGCGGCCCCUGUCAGAUUCUGGUGAAUCUGCGUAUUCUGCGGU

>  <qualitative label>
satisfied

$$$$

Does the variant `GGGGGGCACAGCAGAAGCGUUCACGUCGCGGCCCCUGUCAGAUUCUUGUGAAUCUGCGAAUUCUGCUGU` have recorded self-cleavage that is 0.5 or more?
not satisfied
